Item-by-item account of Inhibition
# System: Staphylococcus aureus
# runConditions: Concentration 32 ug.mL-1;; ASSAY_TEST Inhibition of Bacterial Growth; detection method Absorption (OD600); MEDIA CAMHB; plate type 384well; NBS; CORNING #3640; time 18 hr
# Description: Antibacterial activity against Staphylococcus aureus MRSA ATCC 43300 (CO-ADD:GP_020); MIC in CAMBH media, using NBS plates, by OD(600)
Potency and affinity values are given separately.
measuredProperty: Inhibition (%)

COc1ccc(CNC(=O)Cn2nc3c(SC4CCCCC4)nccn3c2=O)cc1
8.37
COc1cccc(-n2ccn3c(SCC(=O)Nc4ccc(Cl)cc4)nnc3c2=O)c1
16.43
Cc1cccc(Sc2nc3ccccc3n3c(=O)n(CC(=O)Nc4c(C)cc(C)cc4C)nc23)c1
8.94
O=C(Cn1nc2n(Cc3ccc(F)cc3)c(=O)c3ccccc3n2c1=O)Nc1ccc2c(c1)OCO2
15.06
Cc1cc2nn(CC(=O)NCc3ccc4c(c3)OCO4)c(=O)n2c(Nc2ccccc2C)n1
0.76
O=C(Cn1nc2c(Sc3cccc(F)c3)nccn2c1=O)Nc1cccc(Br)c1
3.89
O=C(Cn1nc2ccc(SC3CCCCC3)nn2c1=O)NCc1ccc(Cl)cc1
6.56
COc1cccc(CNC(=O)CCc2nnc3ccc(-c4ccc(C)cc4)nn23)c1
16.4
Cc1cc2nn(CC(=O)Nc3ccccc3F)c(=O)n2c(Nc2ccc(F)c(C)c2)n1
11.73
O=c1c2sccc2n2c(=O)n(Cc3ccccc3F)nc2n1Cc1cccs1
-3.2
